- assayed-system: NR1/NR2B (Homo sapiens (Human), UniProt Q13224)
- assay: Cell assay: FDSS Ca2+ influx inhibition in HEK293 cells expressing NR1/NR2B
- condition-parameters: read-out: NR2B NAM IC50; HEK293 cells expressing NR1/NR2B, Ca2+ influx
pIC50: −log10 of the molar value.
measured-property: pIC50

Reference set, count: 10
1. COc1ccc(NC(=O)N2C[C@@H]3C[C@@](O)(Cc4ccccc4)C[C@@H]3C2)cc1 [Example 126]: 5.00
2. COC(=O)c1ccc(NC(=O)N2C[C@H]3C[C@@H](c4ccccc4)C[C@H]3C2)cc1 [Example 103]: 5.00
3. Cc1cccc(-c2cccc(C(=O)CN3C[C@@H]4C[C@@](O)(Cc5ccccc5)C[C@@H]4C3)c2)c1 [Example 276]: 5.00
4. Cc1ccccc1[C@]1(O)C[C@H]2CN(c3ccccn3)C[C@H]2C1 [Example 82]: 5.00
5. Oc1ccc([C@@H](O)CN2C[C@@H]3C[C@](F)(Cc4ccccc4)C[C@@H]3C2)cc1 [Example 314]: 6.38
6. COc1ccc(NC(=O)N2C[C@H]3C[C@@H](c4ccccc4)C[C@H]3C2)cc1 [Example 99]: 5.00
7. O=C(CCN1C[C@@H]2C[C@@](O)(c3ccccc3)C[C@@H]2C1)c1ccc(O)cc1 [Example 97]: 5.00
8. Oc1ccc([C@H](O)CN2C[C@@H]3C[C@@](O)(Cc4ccccc4)C[C@@H]3C2)nc1 [Example 165]: 7.47
9. O=C(CN1C[C@@H]2C[C@@](O)(Cc3ccc(F)c(F)c3)C[C@@H]2C1)c1ccc(O)cc1 [Example 252]: 7.07
10. O=C(CN1C[C@@H]2C[C@@](O)(Cc3ccccc3)C[C@@H]2C1)c1cnc(OCc2ccccc2)cn1 [Example 162]: 5.00

a = CC(C)(C)C(=O)Nc1ccc(C(=O)CN2C[C@@H]3C[C@@](O)(Cc4ccccc4)C[C@@H]3C2)cn1 [Example 285]
b = CS(=O)(=O)Nc1ccc(C(=O)CN2C[C@@H]3C[C@@](O)(Cc4ccccc4)C[C@@H]3C2)cc1 [Example 146]
c = Cc1cc(F)ccc1C[C@]1(O)C[C@H]2CN(CC(=O)c3ccc(O)cc3)C[C@H]2C1 [Example 250]
Hey, quick one: sort these by pIC50, low to high? In plain terms: list the labels in the order you were asked to. a, b, c
(a: 5.00, b: 6.49, c: 6.86)

====

- assayed-system: NR1/NR2B (Homo sapiens (Human), UniProt Q05586+Q13224)
- Sequence (Q13224 27-1484, other chains not shown): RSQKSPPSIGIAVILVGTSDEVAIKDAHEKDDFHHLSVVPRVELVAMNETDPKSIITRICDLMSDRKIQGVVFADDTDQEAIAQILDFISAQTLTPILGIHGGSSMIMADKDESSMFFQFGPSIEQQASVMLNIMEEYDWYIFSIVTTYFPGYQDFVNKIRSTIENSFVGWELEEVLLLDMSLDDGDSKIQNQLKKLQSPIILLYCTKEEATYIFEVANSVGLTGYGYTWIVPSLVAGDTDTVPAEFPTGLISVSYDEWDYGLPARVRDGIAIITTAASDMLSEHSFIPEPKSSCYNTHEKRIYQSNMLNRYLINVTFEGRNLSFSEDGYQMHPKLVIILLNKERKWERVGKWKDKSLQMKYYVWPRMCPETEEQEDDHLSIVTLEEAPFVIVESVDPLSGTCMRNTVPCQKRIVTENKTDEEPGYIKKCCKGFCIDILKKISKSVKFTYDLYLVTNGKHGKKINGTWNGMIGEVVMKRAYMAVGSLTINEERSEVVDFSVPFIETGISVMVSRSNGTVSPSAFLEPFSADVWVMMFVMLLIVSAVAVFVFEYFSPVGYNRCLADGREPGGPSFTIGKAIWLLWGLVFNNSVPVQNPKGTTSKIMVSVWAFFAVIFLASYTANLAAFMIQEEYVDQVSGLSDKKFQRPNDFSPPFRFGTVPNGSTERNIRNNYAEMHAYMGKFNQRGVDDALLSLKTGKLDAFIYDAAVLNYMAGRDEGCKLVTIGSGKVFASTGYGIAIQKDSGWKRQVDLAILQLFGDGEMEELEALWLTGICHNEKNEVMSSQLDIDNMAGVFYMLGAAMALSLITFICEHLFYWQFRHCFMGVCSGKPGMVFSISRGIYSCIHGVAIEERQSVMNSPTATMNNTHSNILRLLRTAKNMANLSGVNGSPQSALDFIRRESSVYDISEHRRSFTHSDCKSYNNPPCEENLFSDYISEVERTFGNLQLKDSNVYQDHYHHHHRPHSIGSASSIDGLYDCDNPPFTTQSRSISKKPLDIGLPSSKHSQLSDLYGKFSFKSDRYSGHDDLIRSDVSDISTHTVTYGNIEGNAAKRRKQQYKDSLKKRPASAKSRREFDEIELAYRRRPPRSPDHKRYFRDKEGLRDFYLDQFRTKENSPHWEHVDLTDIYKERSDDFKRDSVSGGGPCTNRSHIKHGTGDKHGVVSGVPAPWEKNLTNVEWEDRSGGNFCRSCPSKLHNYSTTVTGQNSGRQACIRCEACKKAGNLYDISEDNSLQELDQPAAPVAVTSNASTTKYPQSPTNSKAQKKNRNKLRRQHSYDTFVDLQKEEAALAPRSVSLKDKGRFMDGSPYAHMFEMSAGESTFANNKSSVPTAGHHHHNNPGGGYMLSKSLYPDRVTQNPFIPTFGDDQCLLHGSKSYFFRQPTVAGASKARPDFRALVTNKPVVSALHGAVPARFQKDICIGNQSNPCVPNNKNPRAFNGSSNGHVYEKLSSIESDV
- assay: Cell assay: FDSS Ca2+ influx inhibition in HEK293 cells expressing NR1/NR2B
- condition-parameters: NR2B NAM IC50, HEK293 cells expressing NR1/NR2B, Ca2+ influx
pIC50: −log10 of the molar value.
measured-property: pIC50

1) CO[C@@]1(Cc2ccccc2)C[C@H]2CN(CC(O)c3ccc(O)cc3)C[C@H]2C1 (mixture of isomers): 7.49

I = Oc1ccc(C(O)CN2C[C@@H]3C[C@@](O)(CC4CCCCC4)C[C@@H]3C2)nc1 (mixture of isomers)
II = Oc1ccc(C(O)CN2C[C@@H]3C[C@@](O)(Cc4ccccc4F)C[C@@H]3C2)nc1 (mixture of isomers)
III = Oc1ccc(C(O)CN2C[C@@H]3C[C@@](O)(Cc4ccc(F)cc4F)C[C@@H]3C2)cc1 (mixture of isomers)
rank_up(items): orders items by reported pIC50 in ascending numerical order. Reply with the labels, ordered as the question asks. I, II, III

====

- assayed-system: NR1/NR2B (Homo sapiens (Human), UniProt Q05586+Q13224)
- assay: Cell assay: FDSS Ca2+ influx inhibition in HEK293 cells expressing NR1/NR2B
- condition-parameters: NR2B NAM IC50, HEK293 cells expressing NR1/NR2B, Ca2+ influx
pIC50: −log10 of the molar value.
measured-property: pIC50

1) Oc1ccc(C(O)CN2C[C@@H]3C[C@@](O)(Cc4ccc(F)c(F)c4)C[C@@H]3C2)cc1 (mixture of isomers) [Example 253]: 7.50
2) Oc1ccc(C(O)CN2C[C@@H]3C[C@](F)(Cc4ccccc4)C[C@@H]3C2)cc1F (mixture of isomers) [Example 316]: 7.44
3) Oc1ccc(C(O)CN2C[C@@H]3C[C@@](O)(Cc4cccs4)C[C@@H]3C2)nc1 (mixture of isomers) [Example 215]: 7.59

A = Oc1ccc(C(O)CN2C[C@@H]3C[C@@](F)(Cc4ccccc4)C[C@@H]3C2)cc1 (mixture of isomers) [Example 313]
B = COc1cccc(C[C@]2(O)C[C@H]3CN(CC(O)c4ccc(O)cn4)C[C@H]3C2)c1 (mixture of isomers) [Example 196]
C = Oc1ccc(C(O)CN2C[C@@H]3C[C@@](O)(Cc4ccccc4)C[C@@H]3C2)nc1F (mixture of isomers) [Example 191]
Please list these molecules in decreasing order of pIC50. Give the labels in the order specified. A, B, C

====

- assayed-system: NR1/NR2B (Homo sapiens (Human), UniProt Q13224)
- assay: Cell assay: FDSS Ca2+ influx inhibition in HEK293 cells expressing NR1/NR2B
- condition-parameters: read-out: NR2B NAM IC50; HEK293 cells expressing NR1/NR2B, Ca2+ influx
pIC50: −log10 of the molar value.
measured-property: pIC50

1 = O=C(CN1C[C@@H]2C[C@@](O)(Cc3ccccc3)C[C@@H]2C1)c1cc(F)c(O)c(F)c1 [Example 159]
2 = O=C(CN1CC2(C1)CC(O)(Cc1ccccc1)C2)c1ccc(O)cc1 [Example 342]
3 = O=C(CN1C[C@@H]2C[C@@](O)(Cc3ccc(C(F)(F)F)cc3)C[C@@H]2C1)c1ccc(O)cc1 [Example 219]
4 = O=C(CN1C[C@@H]2C[C@@](O)(CC3CCCCC3)C[C@@H]2C1)c1ccc(O)cc1 [Example 205]
Please list the entries, largest pIC50 first. Give the order by naming the labels one after another as requested. 3, 4, 2, 1

====

- assayed-system: NR1/NR2B (Homo sapiens (Human), UniProt Q05586+Q13224)
- assay: Cell assay: FDSS Ca2+ influx inhibition in HEK293 cells expressing NR1/NR2B
- condition-parameters: NR2B NAM IC50, HEK293 cells expressing NR1/NR2B, Ca2+ influx
measured-property: IC50 (nM)

Before answering, review these 5 worked examples.
1. Cc1ccccc1C[C@]1(O)C[C@H]2CN(CC(O)c3ccc(O)cc3)C[C@H]2C1 (mixture of isomers): 34.9
2. Oc1ccc(C(O)CN2C[C@@H]3C[C@@](O)(Cc4ccc(C(F)(F)F)cc4)C[C@@H]3C2)cc1 (mixture of isomers): 84.8
3. O=C1CCc2cc(C(O)CN3C[C@@H]4C[C@@](O)(Cc5ccccc5)C[C@@H]4C3)ccc2N1 (mixture of isomers): 40.2
4. CS(=O)(=O)Nc1ccc(C(O)CN2C[C@@H]3C[C@@](O)(Cc4ccccc4)C[C@@H]3C2)cc1 (mixture of isomers): 47
5. CS(=O)(=O)Nc1ccc(C(O)CN2C[C@@H]3C[C@@](O)(Cc4ccccc4)C[C@@H]3C2)nc1 (mixture of isomers): 114

a = Cc1cc(C)cc(C[C@]2(O)C[C@H]3CN(CC(O)c4ccc(O)cn4)C[C@H]3C2)c1 (mixture of isomers)
b = COc1ccc(C[C@]2(O)C[C@H]3CN(CC(O)c4ccc(O)cc4)C[C@H]3C2)cc1 (mixture of isomers)
Please indicate which has the smaller reported IC50: a , or b . Choose, then provide that item's label. b
(b: 47.4 nM, a: 666 nM)

A = Oc1cnc(C(O)CN2C[C@@H]3C[C@@](O)(Cc4ccccc4)C[C@@H]3C2)nc1 (mixture of isomers)
B = CC(O)(CN1CC2CC(O)(Cc3ccccc3)CC2C1)c1ccc(O)cc1 (racemic)
C = Oc1ccc(C(O)CN2C[C@H]3CN(Cc4ccccc4)C[C@H]3C2)cc1 (mixture of isomers)
Give the ascending ranking of the items by reported IC50. List the labels according to the requested ordering. B, C, A
(B: 43 nM, C: 139 nM, A: 3400 nM)

I = Oc1ccc(C(O)CN2C[C@@H]3C[C@@](O)(Cc4ccccc4)C[C@@H]3C2)cc1 (mixture of isomers)
II = O=c1[nH]c2ccc(C(O)CN3C[C@@H]4C[C@@](O)(Cc5ccccc5)C[C@@H]4C3)cc2o1 (mixture of isomers)
Lab notebook, comparison: I versus II , higher IC50 goes to which? Label of pick, please. II
(II: 52.4 nM, I: 25.5 nM)

====

- assayed-system: NR1/NR2B (Homo sapiens (Human), UniProt Q13224)
- assay: Cell assay: FDSS Ca2+ influx inhibition in HEK293 cells expressing NR1/NR2B;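 also: Fluo-8 Ca2+ signal read on Hamamatsu FDSS 6000 after glutamate, glycine and Ca2+ challenge following 10 min compound preincubation, end/baseline fluorescence ratio compared with MK801 control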
- condition-parameters: read-out: NR2B NAM IC50; HEK293 cells expressing NR1/NR2B, Ca2+ influx
pIC50: −log10 of the molar value.
measured-property: pIC50

Answered examples (6):
1. O=C(CN1C[C@@H]2C[C@@](O)(Cc3ccc(F)cc3F)C[C@@H]2C1)c1ccc(O)cn1 [Example 230]: 5.67
2. Cc1cc(F)ccc1C[C@]1(O)C[C@H]2CN(CC(=O)c3ccc(O)cn3)C[C@H]2C1 [Example 242]: 5.57
3. O=C(CN1C[C@@H]2CN(Cc3ccccc3)C[C@@H]2C1)c1ccc(O)cc1 [Example 326]: 6.17
4. O=C(CCN1C[C@@H]2C[C@@](O)(Cc3ccccc3)C[C@@H]2C1)c1ccc(O)cc1 [Example 133]: 5.15
5. O=C(CN1C[C@@H]2C[C@@](O)(Cc3ccccc3)C[C@@H]2C1)c1cccc(-c2ccccc2)c1 [Example 268]: 5.00
6. Cc1ccccc1[C@]1(O)C[C@H]2CN(C(=O)Nc3ccc(Cl)c(C(F)(F)F)c3)C[C@H]2C1 [Example 24]: 5.00

a = Cc1ccccc1C[C@]1(O)C[C@H]2CN(CC(=O)c3ccc(O)cc3)C[C@H]2C1 [Example 183]
b = COc1cccc(NC(=O)N2C[C@@H]3C[C@@](O)(Cc4ccccc4)C[C@@H]3C2)c1 [Example 119]
Dear colleague, could you let me know whether a or b has the lower recorded pIC50? Thanks. Write down the label of the entry you select. b
(b: 5.00, a: 6.84)
